Target: T1, recombinant GST-SNAP25197 (UniProt P60880 1-197)
T1 construct: range 1-197; also called BoNT/A-cleaved form of SNAP25
T1 sequence (P60880 1-197 limits assumed): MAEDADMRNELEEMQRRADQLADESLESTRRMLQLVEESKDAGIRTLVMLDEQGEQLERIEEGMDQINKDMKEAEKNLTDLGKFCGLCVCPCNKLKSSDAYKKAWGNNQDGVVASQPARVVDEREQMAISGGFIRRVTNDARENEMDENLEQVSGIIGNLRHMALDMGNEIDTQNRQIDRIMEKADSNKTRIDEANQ
Assay: BLI (Octet Red96), IgG on AMC biosensor, GST-SNAP25197 as analyte
# kon listing for each entry below
recorded.metric: kon (M⁻¹ s⁻¹)

{"binder": "D3 IgG (antibody, V domains shown) VH: EVQLEESGGGLVQPGGSLKLSCAASGFTFSNYGMSWVRQTPDKRLELVATINSNGGTTYYPDSVKGRFTISRDNAKNTLYLQMSSLKSEDSAMYYCARDRDAMDYWGQGTSVTVSS VL: DVLMTQTPLSLPVSLGDQASISCRSSQSIVNSHGNTYLEWYLQKPGQSPKLLIYKVSNRFSGVPDRFSGSGSGTDFTLKISRVEAEDLGVYYCFQGSHVPWTFGGGTKLEIK", "readout.number": 111000}
{"binder": "C16 IgG (antibody, V domains shown, also called C16 IgG1) VH: EVQLQQSGAELARPGASVQMSCKAFGYTFTNYTMHWVRQRPGQGLEWIGFINPSSDYTNYNQKFKDKATLSADKSSSTAYMQLSSLTSEDSAVYYCARRIFYNGRTYAAMDYWGQGTSVTVSS VL: DIVMTQSPASLAVSLGQRATISCRASKSVSSSGYSYMHWYQQKPGQPPKLLIYLASNLESGVPARFSGSGSGTDFTLNIHPVEEEDAATYYCQHSRELPLTFGAGTKLELK", "readout.number": "1.6e+06"}
